Assay: acute toxicity in mice (single intraperitoneal administration)
Conditions: mouse, in vivo, ip; mice, single i.p.; read-out: LD50 (median lethal dose on single administration)
The following compounds are listed with their measured LD50 values.

Examples with their reported LD50 follow.
compound="N=C(N)NCCCCCCC(O)CC(=O)NC(O)C(=O)NCCCCNCCCN (centres unmarked)" recorded_result="25 to 50 mg/kg"
compound="COC(NC(=O)C[C@@H](O)CCCCNC(=N)N)C(=O)NCCCCNCCCN (some centres unmarked)" recorded_result="25 to 50 mg/kg"
compound="CCCCOC(NC(=O)C[C@@H](O)CCCCNC(=N)N)C(=O)NCCCCNCCCN (some centres unmarked)" recorded_result="> 50 mg/kg"
compound="N=C(N)NCCCCCCC(=O)NC(OCCO)C(=O)NCCCCNCCCN (centres unmarked)" recorded_result="25 to 50 mg/kg"
compound="CCOC(NC(=O)CCCCCCNC(=N)N)C(=O)NCCCCNCCCN (centres unmarked)" recorded_result="12.5 to 25 mg/kg"
compound="CCOC(NC(=O)C[C@@H](O)CCCCNC(=N)N)C(=O)NCCCCNCCCN (some centres unmarked)" recorded_result="> 25 mg/kg"

# get_value(readout='LD50', item= N=C(N)NCCCCC=CC(=O)NC(O)C(=O)NCCCCNCCCN (centres unmarked) )
25 to 50 mg/kg

# get_value(readout='LD50', item= N=C(N)NCCCCCCC(=O)NC(O)C(=O)NCCCCNCCCN (centres unmarked) )
25 to 50 mg/kg

----------
Tested on: mouse leukemia L-1210 cells
Test: growth inhibitory activity to cancer cells in vitro (L-1210, 48 hours)
Format: cell-based
Conditions: L1210, 40 mcg/ml, read-out: Growth inhibition (%), (1-T/C) × 100
Decision: inhibition at 40 µg/mL compared against 70%; not below it gives 1 (yes), below it gives 0 (no).

A selection of reference data follows.
compound="N=C(N)NCCCCCCCC(=O)NC(O)C(=O)NCCCCNCCCN (centres unmarked)" assigned_label="0 (no)"
compound="CCCCOC(NC(=O)CCCCCCNC(=N)N)C(=O)NCCCCNCCCN (centres unmarked)" assigned_label="1 (yes)"
compound="COC(NC(=O)CCCCCCCNC(=N)N)C(=O)NCCCCNCCCN (centres unmarked)" assigned_label="0 (no)"
compound="N=C(N)NCCCC[C@H](O)CC(=O)NC(OCc1ccccc1)C(=O)NCCCCNCCCN (some centres unmarked)" assigned_label="1 (yes)"

Continue with the compound presented below.
inhibition at 40 µg/mL >= 70% for COC(NC(=O)CCCNC(=N)N)C(=O)NCCCCNCCCN (centres unmarked) ?
1 (yes)
